Documented pIC50 across a set of molecules
# TEST TARGET: Avi-KRAS G12D/Q25A (1-169) GppNHp/3xFLAG-PI3KCA (157-299) (Homo sapiens, UniProt P01116, G12D/Q25A)
# Construct: 375 nM Avi-KRAS G12D/Q25A (1-169) GppNHp
# Sequence (P01116 1-169 isoform P01116-2 G12D/Q25A): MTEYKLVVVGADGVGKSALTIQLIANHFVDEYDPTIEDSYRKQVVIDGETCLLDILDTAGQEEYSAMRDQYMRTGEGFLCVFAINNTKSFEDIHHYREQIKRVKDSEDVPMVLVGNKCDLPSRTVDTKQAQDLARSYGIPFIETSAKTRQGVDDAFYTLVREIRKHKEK
# ASSAY PROTOCOL: RAS-effector PPI HTRF disruption assay, PI3KCA-GppNHp-KRAS G12D/Q25A
# Format: biochemical
pIC50: −log10 of the molar value.
METRIC NAME: pIC50

Nc1nc2c(-c3ncc4c(O[C@@H]5CCNC5)nc(OC[C@@]56CCCN5C[C@H](F)C6)nc4c3F)ccc(F)c2s1    < 5.00
C[C@@H]1NCC[C@@H]1Oc1nc(OC[C@@]23CCCN2C[C@H](F)C3)nc2c(F)c(-c3ccc(F)c4sc(N)c(C#N)c34)c(Cl)cc12    6.00 to 7.00
C[C@H]1NCC[C@H]1Oc1nc(OC[C@@]23CCCN2C[C@H](F)C3)nc2c(F)c(-c3ccc(F)c4sc(N)c(C#N)c34)c(C(F)(F)F)cc12 (single isomer, unassigned) [Compound 73]    ≥ 7.00
C[C@@H]1C[C@H](Oc2nc(OC[C@@]34CCCN3C[C@H](F)C4)nc3c(F)c(-c4ccc(F)c5sc(N)c(C#N)c45)c(Cl)cc23)CN1 (atropisomer, axis not shown) [Compound 60]    6.00 to 7.00
Nc1nc2c(-c3c(C(F)(F)F)cc4c(OC5CC6CC[C@H](C5)N6)nc(OCC56CCCN5CCC6)nc4c3F)ccc(F)c2s1 (some centres unmarked)    6.00 to 7.00
